The measurements presented in this section are drawn from ChEMBL document CHEMBL1201862.

- System: SK-MEL-5
- procedure text: NCI tumour cell line growth inhibition, 48 h
The source made the active and inactive calls. Rule as the data show it: active = GI50 up to about 1.1 µM and inactive = higher.
Outcome codes: true = active, false = inactive

- compound: "O=C1CCC(c2ccccc2)C(O)(C(=O)O)C1 (stereo unspecified)"
  test system: "SK-MEL-5"
  assigned label: "false"
- compound: "O=C(O)C12CCCC(CCC1)C2"
  test system: "SK-MEL-5"
  assigned label: "false"
- compound: "Clc1ccc(-c2nnc(C34CC5CC(CC(C5)C3)C4)o2)cc1"
  test system: "SK-MEL-5"
  assigned label: "false"
- compound: "OCC(O)COCn1cc(Cn2ncc3c(O)ncnc32)nn1 (stereo unspecified)"
  test system: "SK-MEL-5"
  assigned label: "false"
- compound: "CSc1nc(NC2OC(COC(C)=O)C(OC(C)=O)C(OC(C)=O)C2OC(C)=O)c(/N=C/C=N/c2c(NC3OC(COC(C)=O)C(OC(C)=O)C(OC(C)=O)C3OC(C)=O)nc(SC)[nH]c2=O)c(=O)[nH]1 (stereo unspecified)"
  test system: "SK-MEL-5"
  assigned label: "false"
- compound: "Cc1ccsc1/C=N/Nc1nc2ccccc2s1"
  test system: "SK-MEL-5"
  assigned label: "false"
- compound: "OC1CN2Cc3cc4c(cc3[C@]13C=C[C@@H](O)CC23)OCO4 (stereo partly specified)"
  test system: "SK-MEL-5"
  assigned label: "false"
- compound: "Cc1c(Cl)ccc2c1NC(=O)C2(O)CC(=O)c1cccc2ccccc12 (stereo unspecified)"
  test system: "SK-MEL-5"
  assigned label: "false"
- compound: "Oc1ccncc1-c1cnccc1O"
  test system: "SK-MEL-5"
  assigned label: "false"
- compound: "CC1(C)OC2C(=O)C=C(COCc3ccccc3)C2O1 (stereo unspecified)"
  test system: "SK-MEL-5"
  assigned label: "false"
- compound: "COc1c(Br)cc2c(c1OC)C(Br)CCC(Br)(Br)C2=O (stereo unspecified)"
  test system: "SK-MEL-5"
  assigned label: "true"

###

This section presents molecules with their documented GI50 values.
- Tested on: OVCAR-8
- procedure text: NCI tumour cell line growth inhibition, 48 h
The source made the active and inactive calls. No stated cut-off is given here; in the data, active = GI50 up to about 1.1 µM and inactive = higher.

- molecule: "O=C(O)Cc1ccc2c(c1)/C(=C1/Nc3ccccc3C1=O)C(=O)N2"
  GI50: "32 µM (inactive)"
- molecule: "O=C(O)c1cc(-c2ccc3c(O)c(O)ccc3c2)ccc1O"
  GI50: "23.1 µM (inactive)"
- molecule: "CCOC(=O)N1C/C(=C\\c2ccccc2)C(=O)/C(=C/c2ccccc2)C1"
  GI50: "2.82 µM (inactive)"
- molecule: "C/C=C/C=C/c1nc(C#N)c(N)o1"
  GI50: "> 100 µM (inactive)"
- molecule: "CC(=O)NC1C(=O)CC(c2ccccc2)N(C)C1c1ccccc1 (stereo unspecified)"
  GI50: "> 100 µM (inactive)"
- molecule: "CC1=NN(C2=NS(=O)(=O)c3ccccc3N2C)C(=O)C1"
  GI50: "> 100 µM (inactive)"
- molecule: "OCC(O)COCn1cc(Cn2ncc3c(O)ncnc32)nn1 (stereo unspecified)"
  GI50: "> 100 µM (inactive)"
- molecule: "CN(C)CCCNc1cc(O)c2c(c1O)C(=O)c1ccccc1C2=O"
  GI50: "12.6 µM (inactive)"
- molecule: "Fc1cccc(F)c1C1SCc2nc3cc4ccccc4cc3n21 (stereo unspecified)"
  GI50: "58.6 µM (inactive)"
- molecule: "C[n+]1c(-c2ccc(/C=N/Nc3n[nH]c(=S)n3N/N=C/c3ccc(-c4cn5ccccc5[n+]4C)cc3)cc2)cn2ccccc21"
  GI50: "> 100 µM (inactive)"
- molecule: "Cc1cc(-c2nc3cccc(O)c3s2)ccc1N"
  GI50: "24.2 µM (inactive)"
